- Test system: Aspergillus fumigatus
- assay-overview: Disseminated aspergillosis in guinea-pigs
- Assay type: in vivo
- particulars: i.v. treatment 5 mg/kg/day, 19 infusions, 9.5 days
test-readout: % surv (% survivors) (%)

{"columns": ["compound", "quantitative-result"],
 "data": [
  ["CCN(CC)CC(=O)OC(C)C(C)n1ncn(-c2ccc(N3CCN(c4ccc(OCC5COC(Cn6cncn6)(c6ccc(F)cc6F)O5)cc4)CC3)cc2)c1=O.O=C(O)C=CC(=O)O (stereo not shown)", 16.7],
  ["CC(C)C(N)C(=O)OC(C)C(C)n1ncn(-c2ccc(N3CCN(c4ccc(OCC5COC(Cn6cncn6)(c6ccc(F)cc6F)O5)cc4)CC3)cc2)c1=O (stereo not shown)", 16.7],
  ["CC(C)CC(N)C(=O)OC(C)C(C)n1ncn(-c2ccc(N3CCN(c4ccc(OCC5COC(Cn6cncn6)(c6ccc(F)cc6F)O5)cc4)CC3)cc2)c1=O (stereo not shown)", 0],
  ["C[C@H](OC(=O)[C@@H](N)Cc1ccccc1)[C@H](C)n1ncn(-c2ccc(N3CCN(c4ccc(OC[C@@H]5CO[C@@](Cn6cncn6)(c6ccc(F)cc6F)O5)cc4)CC3)cc2)c1=O (relative stereo)", 83.3]
]}

---

- Test system: Candida albicans
- assay-overview: Disseminated candidosis in guinea-pigs
- Assay type: in vivo
- particulars: i.v. treatment 5 mg/kg/day, 19 infusions, 9.5 days
- Description: Specific pathogen-free (SPF) guinea-pigs (weighing 400-500 g) were used in all experiments. A catheter was placed into the left jugular vein of the animals that were treated by intravenous infusion, the vein was ligated, and the catheter was connected to a microprocessor-controlled infusion pump. […] The remaining CFU/g in the culture-positive livers was measured and expressed in table 9 (after intravenous treatment) and table 10 (after oral treatment) as mean log10 CFU/g. […]

{"columns": ["compound", "endpoint-unit", "% surv (% survivors)"],
 "data": [
  ["CC(C)CC(N)C(=O)OC(C)C(C)n1ncn(-c2ccc(N3CCN(c4ccc(OCC5COC(Cn6cncn6)(c6ccc(F)cc6F)O5)cc4)CC3)cc2)c1=O (stereo not shown)", "%", 16.7],
  ["CCN(CC)CC(=O)OC(C)C(C)n1ncn(-c2ccc(N3CCN(c4ccc(OCC5COC(Cn6cncn6)(c6ccc(F)cc6F)O5)cc4)CC3)cc2)c1=O.O=C(O)C=CC(=O)O (stereo not shown)", "%", 66.7],
  ["CC(C)C(N)C(=O)OC(C)C(C)n1ncn(-c2ccc(N3CCN(c4ccc(OCC5COC(Cn6cncn6)(c6ccc(F)cc6F)O5)cc4)CC3)cc2)c1=O (stereo not shown)", "%", 66.7],
  ["C[C@H](OC(=O)[C@@H](N)Cc1ccccc1)[C@H](C)n1ncn(-c2ccc(N3CCN(c4ccc(OC[C@@H]5CO[C@@](Cn6cncn6)(c6ccc(F)cc6F)O5)cc4)CC3)cc2)c1=O (relative stereo)", "%", 83.3]
]}

---

- Tested on: Candida kefyr
- assay-overview: Determination of fungal susceptibility (MIC)
- Format: cell-based
- particulars: CYG medium, 2 days at 37° C., growth to 35% of control or less
// reported MIC per item

{"columns": ["compound", "MIC"],
 "data": [
  ["CC(C)C(N)C(=O)OC(C)C(C)n1ncn(-c2ccc(N3CCN(c4ccc(OCC5COC(Cn6cncn6)(c6ccc(F)cc6F)O5)cc4)CC3)cc2)c1=O (stereo not shown) [Compound 18]", "<0.1 10^−6 M"],
  ["CC(C)CC(N)C(=O)OC(C)C(C)n1ncn(-c2ccc(N3CCN(c4ccc(OCC5COC(Cn6cncn6)(c6ccc(F)cc6F)O5)cc4)CC3)cc2)c1=O (stereo not shown) [Compound 21]", "0.1 10^−6 M"],
  ["C[C@H](OC(=O)[C@@H](N)Cc1ccccc1)[C@H](C)n1ncn(-c2ccc(N3CCN(c4ccc(OC[C@@H]5CO[C@@](Cn6cncn6)(c6ccc(F)cc6F)O5)cc4)CC3)cc2)c1=O (relative stereo) [Compound 23]", "<0.1 10^−6 M"],
  ["CCN(CC)CC(=O)OC(C)C(C)n1ncn(-c2ccc(N3CCN(c4ccc(OCC5COC(Cn6cncn6)(c6ccc(F)cc6F)O5)cc4)CC3)cc2)c1=O.O=C(O)C=CC(=O)O (stereo not shown) [Compound 16]", "<0.1 10^−6 M"]
]}
